Reference source for all entries: patent US9920039B2

MIC values, listed per item
system: methicillin-susceptible S. aureus (M923); test: MIC by broth microdilution (CLSI); format: cell-based, Staphylococcus aureus; details: Staphylococcus aureus; MSSA M923; racemic mixture; Table 2; read-out: MIC

Here are 3 molecules together with their reported answers.
Cc1noc(-c2ccc(N3CC(CI)OC3=O)cc2F)n1 (racemic) [Compound A1b] | > 50 µg/mL
Cc1noc(-c2ccc(N3CC(CN=[N+]=[N-])OC3=O)cc2F)n1 (racemic) [Compound A2b] | > 50 µg/mL
Cc1noc(-c2ccc(N3CC(Cn4cccn4)OC3=O)cc2F)n1 (racemic) [Compound A5b] | > 50 µg/mL

Short answer for CC(=O)NCC1CN(c2ccc(-c3nc(C)no3)cc2)C(=O)O1 (stereo not shown) [Compound A3a] : MIC was 6.25 µg/mL

* * *

MIC values, listed per item
system: Linezolid-resistant S. hominis Strain 11; assay: MIC by broth microdilution (Table 5); format: cell-based, Staphylococcus hominis; settings: S. hominis Strain 11, linezolid-resistant
Provide only the numeric value, understood in µg/mL.

Form: item "CC(=S)NC[C@H]1CN(c2ccc(-c3nc(C)no3)c(F)c2)C(=O)O1" ; test system Linezolid-resistant S. hominis Strain 11; MIC: 4

Form: item "CC(=S)NC[C@@H]1CN(c2ccc(-c3nc(C)no3)c(F)c2)C(=O)O1" ; test system Linezolid-resistant S. hominis Strain 11; MIC: 128

Form: item "CC(=S)NC[C@H]1CN(c2ccc(-c3nc(C)no3)cc2)C(=O)O1" ; test system Linezolid-resistant S. hominis Strain 11; MIC: 8

* * *

test system: 12 MRSE all LZD sensitive; assay: MIC on strain panel (Table 4); type: cell-based, Staphylococcus epidermidis
Experimental readout: MIC90 (mg/L)

I = CNC(=S)NC[C@H]1CN(c2ccc(-c3nc(C)no3)cc2)C(=O)O1
II = CNC(=S)NC[C@H]1CN(c2ccc(-c3nc(C)no3)c(F)c2)C(=O)O1
Name the one with the greater MIC90 value, either I or II as given. Identify your pick by its label.
I

* * *

System: Linezolid-resistant S. epidermidis Strains 1-10
Assay: MIC by broth microdilution (Table 5)
Assay type: cell-based, Staphylococcus epidermidis
Conditions: S. epidermidis Strain 4, linezolid-resistant
Experimental: The in vitro antibacterial activity of the new agents was studied by determining their minimum inhibitory concentrations (MICs) by means of the broth microdilution method according to the Clinical and Laboratory Standards Institute (CLSI) guidelines.[16] […] The microtitre plate was then incubated at 37° C. for 18-24 h after which each well was analysed for the presence of bacterial growth. […]
Experimental readout: MIC (µg/mL)
Provide only the numeric value, understood in µg/mL.

Here are 2 compounds together with their reported answers.
CC(=S)NC[C@@H]1CN(c2ccc(-c3nc(C)no3)c(F)c2)C(=O)O1 [Compound A4bR] | 128
CC(=S)NC[C@H]1CN(c2ccc(-c3nc(C)no3)c(F)c2)C(=O)O1 [Compound A4bS] | 4

Short answer for CC(=S)NC[C@H]1CN(c2ccc(-c3nc(C)no3)cc2)C(=O)O1 [Compound A4aS] : MIC was 32

* * *

tested on: methicillin-susceptible S. aureus (M923); assay: MIC by broth microdilution (CLSI); assay type: cell-based, Staphylococcus aureus; conditions: Staphylococcus aureus; MSSA M923; racemic form; Table 3; read-out: MIC
Experimental readout: MIC (µg/mL)

Cc1noc(-c2ccc(N3CC(Cn4ccnn4)OC3=O)cc2)n1 (racemic) [Compound B1a] | 25
CNC(=S)NCC1CN(c2ccc(-c3nc(C)no3)cc2)C(=O)O1 (racemic) [Compound B4a] | 6.25
Cc1noc(-c2ccc(N3CC(Cn4ccnn4)OC3=O)cc2F)n1 (racemic) [Compound B1b] | 25
CNC(=S)NCC1CN(c2ccc(-c3nc(C)no3)c(F)c2)C(=O)O1 (racemic) [Compound B4b] | 6.25
CC(=O)NC[C@H]1CN(c2ccc(N3CCOCC3)c(F)c2)C(=O)O1 [Linezolid, reference compound] | 3.12

* * *

melting point values, listed per item

Here are 4 compounds together with their reported answers.
Cc1noc(-c2ccc(N3CC(CI)OC3=O)cc2)n1 (racemic) | 145 to 147 °C
CNC(=S)NCC1CN(c2ccc(-c3nc(C)no3)cc2)C(=O)O1 (racemic) | 189.4 to 191.8 °C
Cc1noc(-c2ccc(N3CC(Cn4ccnn4)OC3=O)cc2)n1 (racemic) | 208 to 210 °C
CNC(=S)NCC1CN(c2ccc(-c3nc(C)no3)c(F)c2)C(=O)O1 (racemic) | 170.7 to 172.4 °C

Short answer for Cc1noc(-c2ccc(N3CC(CN=[N+]=[N-])OC3=O)cc2F)n1 (racemic) : melting point was 126.2 to 127.7 °C

Short answer for Cc1noc(-c2ccc(N3CC(CI)OC3=O)cc2F)n1 (racemic) : melting point was 148 to 149 °C

Short answer for CC(=O)NCC1CN(c2ccc(-c3nc(C)no3)cc2)C(=O)O1 (stereo not shown) : melting point was 214 to 216 °C

Short answer for CC(=O)NCC1CN(c2ccc(-c3nc(C)no3)c(F)c2)C(=O)O1 (racemic) : melting point was 184 to 186 °C

Short answer for Cc1noc(-c2ccc(N3CC(Cn4ccnn4)OC3=O)cc2F)n1 (racemic) : melting point was 176.2 to 177.8 °C

Short answer for Cc1noc(-c2ccc(N3CC(CN=[N+]=[N-])OC3=O)cc2)n1 (racemic) : melting point was 133.9 to 135 °C

* * *

tested on: 6 ATCC (4MSSA, 2 MRSA)plus45 MRSA all LZD sensitive; experiment: MIC on strain panel (Table 4); format: cell-based, Staphylococcus aureus; conditions: 6 ATCC plus 45 MRSA
Experimental readout: MIC90 (µg/mL)

CNC(=S)NC[C@H]1CN(c2ccc(-c3nc(C)no3)c(F)c2)C(=O)O1 | 4
CNC(=S)NC[C@H]1CN(c2ccc(-c3nc(C)no3)cc2)C(=O)O1 | 4

* * *

MIC values, listed per item
system: Linezolid-resistant S. epidermidis Strains 1-10; assay: MIC by broth microdilution (Table 5); format: cell-based, Staphylococcus epidermidis; details: S. epidermidis Strain 1, linezolid-resistant
Provide only the numeric value, understood in µg/mL.

Short answer for CC(=S)NC[C@H]1CN(c2ccc(-c3nc(C)no3)cc2)C(=O)O1 [Compound A4aS] : MIC was 8

Short answer for CC(=S)NC[C@H]1CN(c2ccc(-c3nc(C)no3)c(F)c2)C(=O)O1 [Compound A4bS] : MIC was 8

Short answer for CC(=S)NC[C@@H]1CN(c2ccc(-c3nc(C)no3)c(F)c2)C(=O)O1 [Compound A4bR] : MIC was 128

* * *

test system: 11 Linezolid-resistant CoNS; assay: MIC summary on strain panel (Table 5); assay type: cell-based, Staphylococcus epidermidis, Staphylococcus hominis; settings: 11 Linezolid-resistant CoNS
MIC50 values, listed per item
Provide only the numeric value, understood in µg/mL.

Here are 2 compounds together with their reported answers.
CC(=S)NC[C@@H]1CN(c2ccc(-c3nc(C)no3)c(F)c2)C(=O)O1 | 128
CC(=S)NC[C@H]1CN(c2ccc(-c3nc(C)no3)cc2)C(=O)O1 | 8

Continue with the next compound.
Short answer for "CC(=S)NC[C@H]1CN(c2ccc(-c3nc(C)no3)c(F)c2)C(=O)O1" : MIC50 was 4

* * *

MIC90 values, listed per item
tested on: 11 Linezolid-resistant CoNS; test: MIC summary on strain panel (Table 5); format: cell-based, Staphylococcus epidermidis, Staphylococcus hominis; conditions: 11 Linezolid-resistant CoNS
Provide only the numeric value, understood in µg/mL.

Here are 2 molecules together with their reported answers.
CC(=S)NC[C@H]1CN(c2ccc(-c3nc(C)no3)c(F)c2)C(=O)O1 | 8
CC(=S)NC[C@H]1CN(c2ccc(-c3nc(C)no3)cc2)C(=O)O1 | 32

Continue with the next molecule.
Short answer for "CC(=S)NC[C@@H]1CN(c2ccc(-c3nc(C)no3)c(F)c2)C(=O)O1" : MIC90 was 128
